Values compiled from ChEMBL document CHEMBL1221384.

System: Bacillus subtilis
Assay: Antimicrobial activity against Bacillus subtilis MTCC 441 by broth microdilution technique
Assay type: functional
quantity_kind: MIC50 (µg/mL)
Enter your answer as a number in µg/mL; do not include the unit.

> print(dat)
                                     smiles  units.symbol  result.value
1  O/N=C(/c1cnn(-c2ccc(F)c(F)c2)c1)c1cc(Cl)ccc1O         µg/mL          62.5
2  Fc1ccc2oc(-c3cnn(-c4ccc(F)c(F)c4)c3)nc2c1         µg/mL           200
3  O=C(N[C@H](CO)[C@H](O)c1ccc([N+](=O)[O-])cc1)C(Cl)Cl         µg/mL            50
4  Cc1ccc(/C(=N\O)c2cnn(-c3ccc(F)c(F)c3)c2)c(O)c1         µg/mL           500
5  Cc1ccc(C(=O)c2cnn(-c3ccc(F)c(F)c3)c2)c(O)c1         µg/mL           100

Would you mind telling me what MIC50 value was observed for `CC1(C)S[C@@H]2[C@H](NC(=O)[C@H](N)c3ccccc3)C(=O)N2[C@H]1C(=O)O` ?
250

Would you mind telling me what MIC50 value was observed for `O=C(c1cnn(-c2ccc(F)c(F)c2)c1)c1ccccc1O` ?
12.5

Would you mind telling me what MIC50 value was observed for `Cc1ccc(O)c(C(=O)c2cnn(-c3ccc(F)c(F)c3)c2)c1` ?
500

Would you mind telling me what MIC50 value was observed for `Cc1ccc2oc(-c3cnn(-c4ccc(F)c(F)c4)c3)nc2c1` ?
200

Would you mind telling me what MIC50 value was observed for `O=C(c1cnn(-c2ccc(F)c(F)c2)c1)c1cc(F)cc(Cl)c1O` ?
500

Would you mind telling me what MIC50 value was observed for `Fc1ccc(-n2cc(-c3nc4cc(Br)ccc4o3)cn2)cc1F` ?
250
